Reference source for all entries: the EternaBench riboswitch data

The following sequences are listed with their measured apparent Kd values.
tested on: MS2 coat protein; assay: apparent Kd, MS2 coat protein; higher = weaker binding; RNA-MaP array; details: ligand present: flavin mononucleotide; designed as: ON switch for flavin mononucleotide
Observation Type: apparent Kd (nM)

[[record]]
seq_text = "AAGAGUGUGAGAGGAUAUGCUUACCCAUAUCACAUGAGGAUCACCCAUGUCGGCGAUUGUAUUAUGCAGAAGGCUCAAGGACUC"
measurement = 9.8

[[record]]
seq_text = "AGUACCGUACGGAAAACAUGAGGAUCACCCAUGUCUAAUUAGAAGGAUAUGCUCUGUAAAUCGACGCAGAAGGUCAGCUAGAAU"
measurement = 19

[[record]]
seq_text = "UUCAUUCGAACCAAGGAUAUGUGAUAAGUUACAUGAGGAUCACCCAUGUAUCAGUACAUCAACAGACAGAAGGUGGUGCAUAGUCA"
measurement = 6.57

[[record]]
seq_text = "AUGUCGCAAUGGAAAAGACAUGAGGAUCACCCAUGUCAGCGUAGAAGGACCUUGUCGACUAAUGGGUAGGAUAUACGAGAAUCC"
measurement = 7.2

[[record]]
seq_text = "UACCGCUACAUAGGAUAUGGAGGAUGUAUGAAACACAUGAGGAUCACCCAUGUCAUCUGCACACGCCAGAAGGAUGGAAGAAAA"
measurement = 7.13

[[record]]
seq_text = "UUGUAACAUGAGGAUCACCCAUGUAUGAACUAACAAGGAUAUGCGUGAGUCAGAUAAGACGCAGAAGGUGUCAGAU"
measurement = 7.55

[[record]]
seq_text = "GUAUUACAUGAGGAUCACCCAUGUGCGCCGCGUCAAGGAUAUGUAUCGUACGUGUAGUAAACAGAAGGUGACGGAU"
measurement = 71.2


====

The following sequences are listed with their measured apparent Kd values.
system: MS2 coat protein; assay: apparent Kd, MS2 coat protein; higher = weaker binding; RNA-MaP array; FMN 200 µM where present; conditions: designed as: OFF switch for flavin mononucleotide; no ligand
Observation Type: apparent Kd (nM)

[[record]]
seq_text = "GUUGGAUGAGGAUAUCGAGGUUAGUACAUGAGGAUCACCCAUGUUAUCCAGGUGUCGGUUCGAGAAGGCAUUGGAC"
measurement = 32.6

[[record]]
seq_text = "GUGCAGAUGUAAGGAUAUCGACUGGAUAACAGUCGAGAAGGUACAUGAGGAUCACCCAUGUAAAUGAAAGAUAAUAAACUGCAC"
measurement = 14.4

[[record]]
seq_text = "UUGUAGUACGUAGGAUAUCAUUGAGGGUCACCCUGAGAAGGACGUGAGGACAUGAGGAUCACCCAUGUGGAUCACCCAUGUCAU"
measurement = 282

[[record]]
seq_text = "CGAUGUUAUGUCAGGAUAUACAUUGCGAAAGCAAUGUAGAAGGGACAUGAGGAUCACCCAUGUCCUAACCAUCG"
measurement = 13.1

[[record]]
seq_text = "CGCUAAGAGAACGAUACGAAUAGACAUGAGGAUCACCCAUGUAGAAGGACAACGGAAUAAACGUUGUAGGAUAUACAUUUAGCG"
measurement = 17.4

[[record]]
seq_text = "GCUGAUGCAGGAUAUAUAUGAAGCGUUCGAAUAGAAUGCGAACAUGAGGAUCACCCAUGUAGAAGGGCAUUGGC"
measurement = 14.6

[[record]]
seq_text = "GCAUGGUAUGAGAAGGCAUAAUUUAUCUAACAACAUGAUUACAUGAGGAUCACCCAUGUUUCCAAUGAGGAUAUCAUACCGUGC"
measurement = 7.83


====

tested on: MS2 coat protein; assay: apparent Kd, MS2 coat protein; higher = weaker binding; RNA-MaP array; FMN 200 µM where present; conditions: designed as: ON switch for flavin mononucleotide; no ligand
Observation Type: apparent Kd (nM)

[[record]]
seq_text = "UGGUACAUCAUAGGAUAUCGUGUGUAAACAUGAGGAUCACCCAUGUCAUACGAGAGUAUGUAGAUCGAGAAGGAUGAUGUACCU"
observation_type = "apparent Kd"
uom = "nM"
measurement = 18.1

[[record]]
seq_text = "GGAGAACAUGAGGAUCACCCAUGUGAGAGGGAUGUAGGAUAUGUGAGGAGUAAAGGAGGGACAGAAGGACAGAGAU"
observation_type = "apparent Kd"
uom = "nM"
measurement = 45.8

[[record]]
seq_text = "GUAGGAAUCACAGGAUAUGCAUGCGCCGCUUCGAUCUACAUGAGGAUCACCCAUGUGUGGUCCGUGUAGAAGGGUGUUUGCUAC"
observation_type = "apparent Kd"
uom = "nM"
measurement = 80.8

[[record]]
seq_text = "GUAGCACAUGAUUUACAUGAGGAUCACCCAUGUAACAUGGGUAAGGAUAUUGAUGUGAAGUUAAUCAAGAAGGUACUAUGCUAC"
observation_type = "apparent Kd"
uom = "nM"
measurement = 9.65


====

system: MS2 coat protein; assay: apparent Kd, MS2 coat protein; higher = weaker binding; RNA-MaP array; conditions: ligand present: flavin mononucleotide; designed as: OFF switch for flavin mononucleotide
The following sequences are listed with their measured apparent Kd values.
Observation Type: apparent Kd (nM)

[[record]]
seq_text = "AUAGCCAAACAAGGAUAUACGCGCGUCACAGAAAAUGGGACAUGAGGAUCACCCAUGUGGGAAGAGUAGAAGGUGUUUCCAGAU"
measurement = 147

[[record]]
seq_text = "UUAUACGCGAAAGGAUAUCUGAGAGUGGGAUCGUGGACAUGAGGAUCACCCAUGUGGAGAGAGGGAGAGAAGGUUCGGGUAUUC"
measurement = 29.5

[[record]]
seq_text = "CUUAUCAUAGGAUAUACAUGAGGAUCACCCAUGUAGUAGCAUAUAUAUAGUUUCCCAAGUAGAAGGAUGUACAC"
measurement = 7.9

[[record]]
seq_text = "AUAUGAGGAGUGAGGAUAUGAAUCUAACAGAAUAAUCAGAAGGCACAUGAGGAUCACCCAUGUAAAUAUAUGGU"
measurement = 11.5


====

tested on: MS2 coat protein; assay: apparent Kd, MS2 coat protein; higher = weaker binding; RNA-MaP array; tryptophan 2.4 mM where present; details: designed as: ON switch for tryptophan; no ligand
The following sequences are listed with their measured apparent Kd values.
Observation Type: apparent Kd (nM)

[[record]]
seq_text = "AUCUUUGGCGAUCUGGGAAAACCAGAUCGACGAGGACCGGUACGGCCGCCACUCGUGUAUAAUAUACAUGAGGAUCACCCAUGUA"
target_under_test = "MS2 coat protein"
measurement = 47.5

[[record]]
seq_text = "GCAUCCUAGUCGGCCGCCACUGCACGAUCAGUGGCAGAUCGUCAACAUGAGGAUCACCCAUGUAGCAGGACCGGGACUAGGAUGC"
target_under_test = "MS2 coat protein"
measurement = 17.6

[[record]]
seq_text = "AUAAAUAAGGCGGCCGCCACUAAUAUAUUAAUAUUUUAUAUCCGACAUGAGGAUCACCCAUGUGGUAGGACCGGGCCAAUAAUUA"
target_under_test = "MS2 coat protein"
measurement = 26.2

[[record]]
seq_text = "CUAUAUAUAGCGGCCGCCACUUACUCAUGAGGUAACAACAUGAGGAUCACCCAUGUUUGAGGAUCAAGGACCGGGCUAUAUAUAG"
target_under_test = "MS2 coat protein"
measurement = 28.2

[[record]]
seq_text = "CGAAUAUAGACGGCCGCCACUCUACAAACAUGAGGAUCACCCAUGUUCACAUAGUGGAAACACAUGAGGACCGGGUCAUAGGCAU"
target_under_test = "MS2 coat protein"
measurement = 18.5

[[record]]
seq_text = "AGCCACUCGAGUGAUCCUCACGAGUGGCAACGAGGACCGGUACGGCCGCCACUCGAAUAACAUGAGGAUCACCCAUGUUUAUAAU"
target_under_test = "MS2 coat protein"
measurement = 93.2

[[record]]
seq_text = "AAUACCGGAUCGGCCGCCACUGGUUGGCCCUGUGUACAUGAGGAUCACCCAUGUCCAUCCCAAGCCAGGACCGGGAUCUUUGUGU"
target_under_test = "MS2 coat protein"
measurement = 16.7

[[record]]
seq_text = "CAUAUAUAAGCGGCCGCCACUUACUCAUGAGGUAACAACAUGAGGAUCACCCAUGUUUGAGGAUCAAGGACCGGGCUUAUAUAUG"
target_under_test = "MS2 coat protein"
measurement = 28.3

[[record]]
seq_text = "AGUCACUCGAGGUGAUCUGACGAGUGGCAACGAGGACCGGUACGGCCGCCACUCGAAUAAACAUGAGGAUCACCCAUGUACAAAU"
target_under_test = "MS2 coat protein"
measurement = 213

[[record]]
seq_text = "CGAUAUAUAGCGGCCGCCACUUACUCAUGAGGUAACAACAUGAGGAUCACCCAUGUUUGAGGAUCAAGGACCGGGCUAUGUAUCG"
target_under_test = "MS2 coat protein"
measurement = 27.4

[[record]]
seq_text = "CUAUGUAUAUAUGCGAAAGCUACGUGUUGACGAGGACCGGUACGGCCGCCACUCGACAUGAGGAUCACCCAUGUAAUAUAUAUAG"
target_under_test = "MS2 coat protein"
measurement = 200

[[record]]
seq_text = "AGCCGGAUUACGGCCGCCACUGUAGACGUGACGAAAGUCGCGUCAACAUGAGGAUCACCCAUGUACAGGACCGGGUGGUCAGGCG"
target_under_test = "MS2 coat protein"
measurement = 173

[[record]]
seq_text = "AGAGCAUUGACGGCCGCCACUCGUGUCACAUGAGGAUCACCCAUGUGAUGGGUGAUAGCCCGGUUGAGGACCGGGUCAAUGCUCA"
target_under_test = "MS2 coat protein"
measurement = 13.7

[[record]]
seq_text = "CUAAUUAAAUCGGCCGCCACUUACUCAUGAGGUAACAACAUGAGGAUCACCCAUGUUUGAGGAUCAAGGACCGGGAUUUAAUUAG"
target_under_test = "MS2 coat protein"
measurement = 28.9

[[record]]
seq_text = "UGUCAUGGAAACAUGACUGGUUCUACCGGUCGAGGACCGGUACGGCCGCCACUCGAUUGGUGGCACAUGAGGAUCACCCAUGUUA"
target_under_test = "MS2 coat protein"
measurement = 28.2

[[record]]
seq_text = "UACAUGAGGAUCACCCAUGUAUUGCCGGUACGAGGACCGGUACGGCCGCCACUCGGAGCAUGAGGAUCACCCAUGUGCUGCUAUG"
target_under_test = "MS2 coat protein"
measurement = 66.2

[[record]]
seq_text = "AACAUGAGGAUCACCCAUGUUCUCGUGUACCGAGGACCGGUACGGCCGCCACUCGGUUCUCGCGAGGAUGGUCAAAGACUAUCCA"
target_under_test = "MS2 coat protein"
measurement = 19.1

[[record]]
seq_text = "GCAUCCUAGUCGGCCGCCACUGCAACAUGAGGAUCACCCAUGUCUGUAUGUGAUCCAUGCAGUAGCAGGACCGGGACUAGGAUGC"
target_under_test = "MS2 coat protein"
measurement = 501

[[record]]
seq_text = "ACAUUGCGCUCGGCCGCCACUGCCUUAUGAUUAUAAGGAUUAAUGAACAUGAGGAUCACCCAUGUCAGGACCGGGAGCGAACCAU"
target_under_test = "MS2 coat protein"
measurement = 13.7

[[record]]
seq_text = "AAUAAUAGGUGAUCCUGACGAGUGGCAUAACGAGGACCGGUACGGCCGCCACUCGAACAUGAGGAUCACCCAUGUAGCCACUCGA"
target_under_test = "MS2 coat protein"
measurement = 312

[[record]]
seq_text = "GGUAUAUAGGCGGCCGCCACUGAUUUUCAUAUAUAUAUAACAUGAGGAUCACCCAUGUAGAUAUACAGGACCGGGCCUAUAUAUU"
target_under_test = "MS2 coat protein"
measurement = 14.9

